Value source: ChEMBL document CHEMBL1938236

System: Plasmodium falciparum
experimental_details: Inhibition of Plasmodium falciparum DHFR assessed as oxidation of NADPH to NADP+ at 10 uM after 15 mins spectrophotometric assay
Documented inhibition across a set of compounds
Give the value in % but do not write % after it.

structure_smiles_string: O=C(CCc1ccc(S(=O)(=O)NCc2ccccc2)cc1)Nc1ccc2c(c1)OCCO2
data_value: 15.6

structure_smiles_string: COc1ccc(NC(=O)CCc2ccc(S(=O)(=O)NCCc3ccccc3)cc2)cc1O
data_value: 46.1

structure_smiles_string: O=C(CCc1ccc(S(=O)(=O)Nc2ccc(F)c(Cl)c2)cc1)Nc1ccc2c(c1)OCCO2
data_value: 46.5

structure_smiles_string: O=C(CCc1ccc(S(=O)(=O)NCCc2ccccc2)cc1)NCc1ccccn1
data_value: 17.9

What does the record list as inhibition for CCc1nnc(NC(=O)CCc2ccc(S(=O)(=O)Nc3ccc(F)cc3)cc2)s1 ?
67.5

Same again, this time with O=C(CCc1ccc(S(=O)(=O)NCCc2ccccc2)cc1)Nc1nc(-c2ccccc2)cs1
34.8

Same again, this time with O=C(CCc1ccc(S(=O)(=O)NCCc2ccccc2)cc1)Nc1ccc2c(c1)OCCO2
26.5

Same again, this time with O=C(Cc1ccc(S(=O)(=O)NCCc2ccccc2)cc1)Nc1ccc2c(c1)OCCO2
68

Same again, this time with COc1ccc(NC(=O)CCc2ccc(S(=O)(=O)NCCc3ccccc3)cc2)cc1OC
51.2

Same again, this time with O=C(CCc1ccc(S(=O)(=O)NCCc2ccccc2)cc1)NCc1cccs1
10.8
